This listing pairs compounds with measured melting point.

O=C(O)CNC(=O)c1ccc(Oc2ccccc2)cc1 = 156 to 158 °C
CC(Cl)C(=O)Nc1ccccc1C(F)(F)F (stereo unspecified) = 92 to 94 °C

Query: Sample O=C1CSCc2c(F)cccc21 — what was its melting point?
Reply: 59 to 61 °C

Query: Sample O=c1[nH]c2ccccc2n1C1=CCCCC1 — what was its melting point?
Reply: 181 to 183 °C

Query: Sample NNC(=O)COc1ccccc1F — what was its melting point?
Reply: 109 to 112 °C

Query: Sample COC(=O)c1sccc1O — what was its melting point?
Reply: 49 to 51 °C

Query: Sample O=C(Nc1nncs1)C1CCCNC1 (stereo unspecified) — what was its melting point?
Reply: 186 to 188 °C
